biological target: hM1 (Homo sapiens, UniProt P11229); assay: Competitive [3H]NMS radioligand binding, CHO-K1 membranes expressing hM1; conditions: ratio of the Ki values hM3/hM1
Sequence (P11229 whole entry): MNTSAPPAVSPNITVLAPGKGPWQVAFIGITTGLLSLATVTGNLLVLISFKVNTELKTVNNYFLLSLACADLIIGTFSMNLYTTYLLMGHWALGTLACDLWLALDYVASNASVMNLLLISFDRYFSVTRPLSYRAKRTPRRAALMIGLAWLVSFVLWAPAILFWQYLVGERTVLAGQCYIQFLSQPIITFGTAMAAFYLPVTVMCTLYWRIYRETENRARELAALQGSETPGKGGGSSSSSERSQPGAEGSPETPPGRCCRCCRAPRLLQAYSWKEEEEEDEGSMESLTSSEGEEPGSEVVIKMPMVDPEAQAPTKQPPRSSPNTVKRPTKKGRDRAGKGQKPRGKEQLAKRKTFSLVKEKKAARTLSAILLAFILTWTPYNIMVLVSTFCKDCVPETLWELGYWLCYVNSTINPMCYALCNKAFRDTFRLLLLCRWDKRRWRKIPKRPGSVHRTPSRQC
In this section, each of the compounds is paired with its reported x-Fold Selectivity for hM1 vs. hM3.
recorded_endpoint: x-Fold Selectivity for hM1 vs. hM3 (x-fold)

>>> reading("CN1CCC=C(C(=O)OCc2cccc(O)c2)C1 [Compound 18b]")
0.7
>>> reading("CN1CCC=C(C(=O)OC(c2ccccc2)c2ccccc2)C1 [DPMA]")
18.1
>>> reading("CN1CCC=C(C(=O)OCC(O)(c2ccccc2)c2ccccc2)C1 [Compound 25]")
1.2
>>> reading("CN1CCC=C(C(=O)OC(c2ccccc2)c2cccc(O)c2)C1 (stereo not drawn) [Compound 17b]")
3.7
>>> reading("CN1CCC=C(C(=O)OCc2ccc(CO)cc2)C1 [Compound 8c]")
1.3
>>> reading("CN1CCC=C(C(=O)OC(c2ccccc2)c2ccc(CO)cc2)C1 (stereo not drawn) [Compound 10c]")
2.0
